Biological target: UniProtKB P50053
Assay: KHK Biochemical Assay (IC50), ADP-Glo, KHK-C
Settings: ADP-Glo; average of at least two separate assays
// NB: equality with 8 nM counts as false (0); only IC50 strictly below is true (1)

C[C@H]1CCN1c1nc2c(c(-c3ccc(F)c(S(N)(=O)=O)c3)n1)CCC2 | false (0)
C[C@H]1CCN1c1nc2c(c(-c3ccc4c(c3)C3(CC3)C(=O)NC4=O)n1)CCC2 | false (0)
C[C@H]1[C@H](O)CN1c1nc(-c2cc(F)c3c(c2)OC[C@H]3NS(C)(=O)=O)c2c(n1)C(F)(F)CC2 (single isomer, unassigned) | true (1)
COc1cc(S(=N)(=O)c2cc(-c3nc(N4CC[C@@H]4C)nc4c3CCC4)ccc2OC)ccc1C#N (some centres unmarked) | false (0)
C[C@H]1CCN1c1nc(-c2cccc(CNS(C)(=O)=O)c2)c2c(n1)C(F)(F)CC2 | true (1)
C[C@H]1[C@H](O)CN1c1nc(-c2ccc3c(c2)C(F)(F)CNC3)c2c(n1)C(F)(F)CC2 | false (0)

Shifting focus to the compound that follows.
IC50 under 8 nM? Item: C[C@H]1CCN1c1nc2c(c(-c3ccc(N4CCNCC4)cc3)n1)CCC2
false (0)

====

Target: human KHK-C (Homo sapiens (Human), UniProt P50053)
Sequence (P50053 whole entry): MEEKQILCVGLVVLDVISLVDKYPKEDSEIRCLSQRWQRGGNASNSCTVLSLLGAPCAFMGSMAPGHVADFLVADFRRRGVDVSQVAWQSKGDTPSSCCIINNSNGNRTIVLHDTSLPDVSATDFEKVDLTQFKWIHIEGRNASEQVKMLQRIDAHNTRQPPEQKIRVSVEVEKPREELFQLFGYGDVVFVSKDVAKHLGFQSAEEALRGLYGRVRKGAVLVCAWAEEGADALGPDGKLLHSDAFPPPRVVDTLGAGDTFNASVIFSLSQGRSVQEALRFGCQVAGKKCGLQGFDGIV
Test: KHK Biochemical Assay (IC50), ADP-Glo, KHK-C
Settings: average of at least two separate assays
pIC50: −log10 of the molar value.
Mark F for pIC50 values under 8, and T for everything at or above.

// known answers, use as guide
C[C@H]1[C@H](F)CN1c1nc(-c2ccc([C@@H](N)CS(C)(=O)=O)cc2)c2c(n1)C(F)(F)CC2 (single isomer, unassigned) | T
C[C@H]1[C@H](F)CN1c1nc(-c2ccc([C@H](N)CS(C)(=O)=O)cc2)c2c(n1)C(F)(F)CC2 (single isomer, unassigned) | T
C[C@H]1[C@H](O)CN1c1nc2c(c(-c3cc4c(c(S(N)(=O)=O)c3)OCC4)n1)CCC2 | F

Could you tell me if the measured pIC50 of C[C@H]1[C@H](O)CN1c1nc(-c2ccc3c(c2)COCC32COC(=O)N2)c2c(n1)C(F)(F)CC2 (stereo partly shown) reaches 8 or more?
T

Threshold query (pIC50 >= 8) on C[C@H]1[C@H](O)CN1c1nc(-c2ccc3c(c2)OC[C@]32NC(=O)OC2(C)C)c2c(n1)C(F)(F)CC2 (single isomer, unassigned)
T

Could you verify whether the entry NC1(c2ccc(-c3nc(N4CC[C@H]4C(F)F)nc4c3CCC4(F)F)cc2)COC1 (single isomer, unassigned) shows pIC50 of no less than 8?
F

Given C[C@H]1[C@H](O)CN1c1nc(-c2ccc3c(c2)OCCC32NC(=O)NC2=O)c2c(n1)C(F)(F)CC2 (stereo partly shown) , state whether its pIC50 is at least 8.
T

Textbook exercise: given the entry C[C@H]1[C@H](O)CN1c1nc(-c2cc3c(c(CNS(C)(=O)=O)c2)OCC3)c2c(n1)C(F)(F)CC2 , state whether its pIC50 is greater than or equal to 8.
T

Please tell me: is the molecule C[C@H]1CCN1c1nc2c(c(-c3ccc(Cl)c(S(N)(=O)=O)c3)n1)CCC2 at or over 8 in terms of pIC50?
F

State whether the measured pIC50 reaches 8, counting equality as reaching it, for NC(=O)c1ccc(-c2nc(N3CCCC34CC4)nc3c2CCC3)cc1
F

Is pIC50 for N#CC1CCN1c1nc(-c2ccc(C(N)=O)cc2)c2c(n1)C(F)(F)CC2 (stereo not shown) at or above 8?
F

Given the entry C[C@H]1[C@H](O)CN1c1nc(-c2ccc3c(c2)OCC32CN(C)C(=O)N2)c2c(n1)C(F)(F)CC2 (stereo partly shown) , answer whether its pIC50 meets or surpasses 8.
T

State whether the measured pIC50 reaches 8, counting equality as reaching it, for C[C@H]1CCN1c1nc2c(c(-c3ccc4c(c3)CS(=O)(=O)C4)n1)CCC2
F

====

Molecular target: human KHK-A (Homo sapiens (Human), UniProt P50053)
Sequence (P50053 other isoform, or with tags, fused parts or gaps): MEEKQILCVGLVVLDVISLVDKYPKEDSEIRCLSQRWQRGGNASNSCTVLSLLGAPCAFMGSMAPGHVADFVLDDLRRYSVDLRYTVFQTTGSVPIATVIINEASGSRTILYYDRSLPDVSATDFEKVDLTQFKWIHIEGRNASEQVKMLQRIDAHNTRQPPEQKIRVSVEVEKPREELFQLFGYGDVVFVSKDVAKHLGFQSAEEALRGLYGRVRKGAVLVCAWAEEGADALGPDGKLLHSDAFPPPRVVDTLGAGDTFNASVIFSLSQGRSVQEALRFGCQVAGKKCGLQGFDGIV
Experiment: KHK Biochemical Assay (IC50), ADP-Glo, KHK-A
Conditions: ADP-Glo; average of at least two separate assays
# if measured IC50 < 30 nM: yes (1)  # else: no (0)

// below: answered compounds
C[C@H]1CCN1c1nc2c(c(-c3ccc(CO)c(F)c3)n1)CCC2 [Example 370] | no (0)
C[C@H]1[C@H](F)CN1c1nc2c(c(-c3cccc(NS(C)(=O)=O)c3)n1)CCC2 [Example 290] | no (0)
C[C@H]1CCN1c1nc2c(c(-c3ccn(C)n3)n1)CCC2 [Example 17] | no (0)
C[C@H]1[C@H](O)CN1c1nc(-c2ccc3c(c2)OC[C@]32NC(=O)N(C)C2=O)c2c(n1)C(F)(F)CC2 (single isomer, unassigned) [Example 827] | no (0)
c1ccc(-c2nc(C3CNC3)nc3c2CCC3)cc1 [Example 99] | no (0)

Lab note: confirm whether the reported IC50 for this compound is below 30 nM, equality not counting. compound: COc1ccc(-c2nc(N3CC[C@@H]3C)nc3c2CCC3)cc1S(=N)(=O)CC1COCOC1 (stereo partly shown) [Example 844]
yes (1)

Does this compound meet the criterion IC50 < 30 nM? COc1ccc(-c2nc(N3C[C@@H](O)[C@@H]3C)nc3c2CCC3(F)F)cc1S(=N)(=O)C(F)F (stereo partly shown) [Example 832]
yes (1)

====

Biological target: human KHK-A (Homo sapiens (Human))
Assay: KHK Biochemical Assay (IC50), ADP-Glo, KHK-A
Details: ADP-Glo; average of at least two separate assays
For each record, write down the corresponding pIC50.
Numbers only, as −log10 of the molar value.

These solved cases illustrate the format of a correct answer.
C[C@H]1CCN1c1nc2c(c(-c3ccc(O)cc3)n1)CCC2 [Example 262] | 6.74
C[C@H]1CCN1c1nc2c(c(-c3ccc(CN4CCC4)cc3)n1)CCC2 [Example 366] | 7.27
C[C@H]1CCN1c1nc2c(c(-c3cn4cnc(C(=O)O)c4s3)n1)CCC2 [Example 118] | 7.54
C[C@H]1CCN1c1nc2c(c(-c3cccc(CNC(=O)CCO)c3)n1)CCC2 [Example 227] | 7.12
C[C@H]1CCN1c1nc2c(c(-c3ccc(C45CC(C(N)=O)(C4)C5)cc3)n1)CCC2 [Example 250] | 6.71
C[C@H]1CCN1c1nc2c(c(-c3ccc(C(C)(C)O)s3)n1)CCC2 [Example 376] | 7.28

Batch request: pIC50 for each of the following compounds.
1. Cc1ncc(-c2nc(N3CC[C@@H]3C)nc3c2CCC3)o1 [Example 325]
2. C[C@H]1CCN1c1nc2c(c(-c3ccc(S(N)(=O)=O)cc3)n1)CCC2 [Example 189]
3. C[C@H]1CCN1c1nc2c(c(-c3cccc(C4(C(=O)O)CC4)c3)n1)CCC2 [Example 253]

1. 6.36
2. 7.09
3. 6.69

Below is a list of compounds. For each, state its recorded pIC50.
1. C[C@H]1CCN1c1nc2c(c(-c3ccccc3O)n1)CCC2 [Example 260]
2. C[C@H]1CCN1c1nc2c(c(-c3ccc(-c4ccccc4)nc3)n1)CCC2 [Example 55]
3. C[C@H]1CCN1c1nc2c(c(-c3cccc(CN(C)C)c3)n1)CCC2 [Example 346]

1. 6.13
2. 5.97
3. 7.78

Please state, for each entry, its recorded pIC50.
1. CCS(=N)(=O)c1cc(-c2nc(N3CC[C@@H]3C)nc3c2CCC3)ccc1OC (stereo partly drawn) [Example 861]
2. COc1cc(-c2nc(N3CC[C@@H]3C(F)(F)F)nc3c2CCC3(F)F)ccc1C1(N)COC1 [Example 837]
3. C[C@H]1C[C@H](C)N1c1nc2c(c(-c3cccc(S(N)(=O)=O)c3)n1)CCC2 [Example 208]
4. C[C@H]1CCN1c1nc2c(c(-c3ccc(CO)s3)n1)CCC2 [Example 375]
5. C[C@H]1CCN1c1nc2c(c(-c3cn4cnc(C(N)=O)c4s3)n1)CCC2 [Example 119]
6. C[C@H]1CCN1c1nc2c(c(-c3ccc(F)c(S(N)(=O)=O)c3)n1)CCC2 [Example 122]

8.31
9.00
7.44
7.52
7.87
7.35

====

Target: KHK-C expressed in NRK-52E cells (Homo sapiens (Human), UniProt P50053)
Experiment: KHK-C Cell-based Assay (EC50), NRK CTG, fructose-mediated ATP-depletion
REPORTED_ENDPOINT: pEC50
Numbers only, as −log10 of the molar value.

For every item in the list below, what is its measured pEC50?
1. CC1CCC1c1nc2c(c(-c3ccc(C(N)=O)cc3)n1)CCC2 (stereo not shown) [Example 501]
2. C[C@H]1CCN1c1nc2c(c(-c3ccc4c(c3)C[C@@H]3[C@H](C(N)=O)[C@H]43)n1)CCC2 (relative stereo) [Example 138]
3. C[C@H]1CCN1c1nc2c(c(-c3ccc4c(=O)[nH]c(=O)[nH]c4c3)n1)CCC2 [Example 426]
4. C[C@H]1CCN1c1nc2c(c(-c3cc4cc(C(N)=O)ccc4[nH]3)n1)CCC2 [Example 152]
5. C[C@H]1[C@H](O)CN1c1nc(-c2ccc3c(c2)COC[C@@]32CCC(=O)N2)c2c(n1)C(F)(F)CC2 (single isomer, unassigned) [Example 640]

6.22
5.74
7.03
6.70
6.55

Give pEC50 for all molecules that follow.
1. C[C@H]1[C@H](O)CN1c1nc(-c2ccc3c(c2)O[C@H](CO)CNC3=O)c2c(n1)C(F)(F)CC2 [Example 705]
2. C[C@H]1CCN1c1nc2c(c(-c3ccc(C(O)C4(C#N)CC4)cc3)n1)CCC2 (stereo partly shown) [Example 255]

1: 6.20; 2: 7.15

Cited source for all entries: patent US12410160B2
